- Tested on: Endogenous Huntingtin Protein
- assay.details: Endogenous Huntingtin Protein Assay (ELISA-based MSD electrochemiluminescence)
- Format: cell-based
- details: Table 1
measurement.kind: IC50

cpd.smiles | experimental.system | IC50
Cc1cn2nc(-c3cc(F)c4nc(C5=CCNCC5)sc4c3)ccc2n1 | Endogenous Huntingtin Protein | ≤ 100 nM
CN1C[C@H](F)[C@H](Nc2nc3nnc(-c4ccc(-c5cn[nH]c5)cc4O)cc3s2)C1 | Endogenous Huntingtin Protein | 1000 to 3000 nM
Cc1cn2nc(-c3cc(F)c4nc(C5CCNCC5)sc4c3)cc(N(C)C)c2n1 | Endogenous Huntingtin Protein | ≤ 100 nM
Cc1cc(-c2cc(F)c3nc(N(C)C4CC(C)(C)NC(C)(C)C4)sc3c2)cc2cn(C)nc12 | Endogenous Huntingtin Protein | ≤ 100 nM
Cc1nn2cc(-c3cc4sc(N(C)C5CC(C)(C)NC(C)(C)C5)nc4cn3)nc2s1 | Endogenous Huntingtin Protein | 1000 to 3000 nM
CN(c1nc2nnc(-c3cc(C#N)c4nn(C)cc4c3)cc2s1)C1CC(C)(C)NC(C)(C)C1 | Endogenous Huntingtin Protein | 100 to 500 nM

Would you mind listing IC50 for each of the following compounds?
1. CN(c1nc2ccc(-c3cc(C4CC4)c4nn(C)cc4c3)cc2s1)C1CC(C)(C)NC(C)(C)C1
2. Cc1cn2nc(-c3cc(F)c4nc(C5CCN(C)CC5)sc4c3)cc(C)c2n1

Data returned:
1000 to 3000 nM
≤ 100 nM
